Test system: OATP1B1/B3 and BCRP
experiment-notes: Study 004: DDI of EDP‐305
Format: in vivo, human
setup-conditions: human, plasma, oral, Cmax, Geo LSMean, rosuvastatin 20 mg + EDP‐305 10 mg (test)
reported-endpoint: Cmax (ng/mL)
Give the quantity in ng/mL, number only.

q: What value of Cmax has been recorded for this entry: CC(C)c1nc(N(C)S(C)(=O)=O)nc(-c2ccc(F)cc2)c1/C=C/[C@@H](O)C[C@@H](O)CC(=O)O
a: 5.59

====

tested-target: CYP3A4 (Homo sapiens, UniProt P08684)
Sequence (P08684 whole entry): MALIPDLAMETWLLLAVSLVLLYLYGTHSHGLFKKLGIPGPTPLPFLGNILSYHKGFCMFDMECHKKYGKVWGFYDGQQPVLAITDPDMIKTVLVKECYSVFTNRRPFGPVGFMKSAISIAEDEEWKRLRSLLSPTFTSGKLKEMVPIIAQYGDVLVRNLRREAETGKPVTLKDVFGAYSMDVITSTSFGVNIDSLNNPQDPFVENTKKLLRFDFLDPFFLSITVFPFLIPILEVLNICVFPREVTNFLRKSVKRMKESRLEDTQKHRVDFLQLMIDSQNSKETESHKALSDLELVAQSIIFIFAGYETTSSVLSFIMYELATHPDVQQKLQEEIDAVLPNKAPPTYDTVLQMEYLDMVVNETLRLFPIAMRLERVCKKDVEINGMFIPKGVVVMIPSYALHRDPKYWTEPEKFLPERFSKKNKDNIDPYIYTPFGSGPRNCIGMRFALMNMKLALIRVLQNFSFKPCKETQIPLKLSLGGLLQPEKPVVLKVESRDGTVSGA
experiment-notes: Study 004: DDI of EDP‐305
Format: in vivo
setup-conditions: human, plasma, oral, Cmax, Geo LSMean, midazolam 2 mg + EDP‐305 10 mg (test)
reported-endpoint: Cmax (ng/mL)
# unit: ng/mL | format: bare number

q: Given Cc1ncc2n1-c1ccc(Cl)cc1C(c1ccccc1F)=NC2 , state its recorded Cmax.
a: 9.41

====

Recorded Cmax values for a group of molecules are listed next.
tested-target: CYP3A4 (Homo sapiens)
experiment-notes: Study 008: effect of EDP‐305 on combined oral contraceptive
Type: in vivo
setup-conditions: human, plasma, oral, Cmax, Geo LSMean, OC alone (reference), day 21
Write your answer as a measured quantity: the number, then the unit.

Some solved entries appear below for comparison.
{"molecule": "C#C[C@]1(O)CC[C@H]2[C@@H]3CCC4=CC(=NO)CC[C@@H]4[C@H]3CC[C@@]21CC (mixture of isomers) [norelgestromin]", "Cmax": "2.64 ng/mL"}
{"molecule": "C#C[C@]1(O)CC[C@H]2[C@@H]3CCC4=CC(=O)CC[C@@H]4[C@H]3CC[C@@]21CC [levonorgestrel]", "Cmax": "2.99 ng/mL"}

// moving on: another record for Cmax
q: So what does the record say about Cmax for C#C[C@]1(O)CC[C@H]2[C@@H]3CCc4cc(O)ccc4[C@H]3CC[C@@]21C [ethinyl estradiol] ?
a: 0.137 ng/mL

====

tested-target: UniProt P08684
experiment-notes: Study 004: DDI of EDP‐305
Assay type: in vivo
setup-conditions: human, plasma, oral, 2 mg, Cmax, Geo LSMean, midazolam 2 mg alone (reference)
reported-endpoint: Cmax (ng/mL)
Dear colleague, please return just the value in ng/mL, with no unit written.

q: Which measured Cmax belongs to Cc1ncc2n1-c1ccc(Cl)cc1C(c1ccccc1F)=NC2 , tested on UniProt P08684?
a: 7.51

====

tested-target: CYP1A2 (Homo sapiens)
Sequence (P05177 1-516): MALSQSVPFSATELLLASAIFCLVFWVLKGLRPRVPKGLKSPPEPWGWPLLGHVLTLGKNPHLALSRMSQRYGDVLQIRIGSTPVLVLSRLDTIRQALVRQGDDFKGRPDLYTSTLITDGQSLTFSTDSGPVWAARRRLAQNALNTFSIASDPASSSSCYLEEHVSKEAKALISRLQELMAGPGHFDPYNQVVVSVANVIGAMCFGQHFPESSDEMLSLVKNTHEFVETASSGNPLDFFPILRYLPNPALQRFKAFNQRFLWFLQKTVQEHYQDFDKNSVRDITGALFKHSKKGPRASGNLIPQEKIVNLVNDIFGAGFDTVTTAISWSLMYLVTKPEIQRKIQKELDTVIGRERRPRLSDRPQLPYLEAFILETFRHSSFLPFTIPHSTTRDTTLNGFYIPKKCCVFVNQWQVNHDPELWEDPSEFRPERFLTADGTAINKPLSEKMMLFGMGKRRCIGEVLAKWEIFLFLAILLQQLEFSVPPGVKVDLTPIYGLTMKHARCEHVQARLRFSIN
experiment-notes: Study 004: DDI of EDP‐305
Type: in vivo
setup-conditions: human, plasma, oral, Cmax, Geo LSMean, caffeine 200 mg + EDP‐305 10 mg (test)
reported-endpoint: Cmax
Kindly write the number and append the unit.

q: Item under review: Cn1c(=O)c2c(ncn2C)n(C)c1=O . Reported Cmax?
a: 4720 ng/mL

====

tested-target: UniProt:P05177
experiment-notes: Study 004: DDI of EDP‐305
Format: in vivo
setup-conditions: human, plasma, oral, 200 mg, Cmax, Geo LSMean, caffeine 200 mg alone (reference)
reported-endpoint: Cmax (µg/mL)
Numeric only. Scale: µg/mL

q: Can you share its Cmax? I mean this molecule: Cn1c(=O)c2c(ncn2C)n(C)c1=O
a: 4.19

====

tested-target: CYP3A4 (Homo sapiens)
experiment-notes: Study 008: effect of EDP‐305 on combined oral contraceptive
Assay type: in vivo
setup-conditions: human, plasma, oral, AUC0,t, Geo LSMean, OC alone (reference), day 21
Documented AUC(0-t) across a set of compounds
Give a bare numeral; the unit ng·h/mL is implied.

Sample answers from the record:
{"compound": "C#C[C@]1(O)CC[C@H]2[C@@H]3CCc4cc(O)ccc4[C@H]3CC[C@@]21C [ethinyl estradiol]", "tested-target": "CYP3A4 (Homo sapiens)", "units-symbol": "ng·h/mL", "AUC(0-t)": 1.25}
{"compound": "C#C[C@]1(O)CC[C@H]2[C@@H]3CCC4=CC(=NO)CC[C@@H]4[C@H]3CC[C@@]21CC (mixture of isomers) [norelgestromin]", "tested-target": "CYP3A4 (Homo sapiens)", "units-symbol": "ng·h/mL", "AUC(0-t)": 25.9}

q: Need AUC(0-t) of C#C[C@]1(O)CC[C@H]2[C@@H]3CCC4=CC(=O)CC[C@@H]4[C@H]3CC[C@@]21CC [levonorgestrel] , thanks.
a: 57.2
